- procedure.details: NCI Yeast Anticancer Drug Screen. Data for the cln2 rad14 strain (AID 165);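 note: 0% = growth equal to vehicle treated cultures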
- test.conditions: S. cerevisiae cln2 rad14 strain, at 5.0 µM (retest, dose inferred, filed as 0.5)
- Procedure: Growth inhibition of yeast strains with defined genetic alterations is measured as a screen for potential anti-cancer activity. Selected strains with alterations in DNA damage repair or cell cycle control were exposed to compounds and growth inhibition was measured relative to vehicle treated controls. The strain used in this assay is cln2 rad14
The panel holds about 79,000 compounds, 15% with a hit somewhere; the sample as a whole holds those more often. Activity calls are given as the source filed them. Cut-off read from the data, not from the text of the source: active = growth inhibition above about 70%; inactive = the rest.
Valid outcomes are listed here; reply with one: t = active, f = inactive

# example entries with known answers
| molecule | group |
| --- | --- |
| Nc1ccc2c(c1)S(=O)(=O)c1cc(N)ccc1-2 | f |
| COC1/C=C\OC2(C)Oc3c(C)c(O)c4c(O)c(c5[nH]c(-c6ccccc6)nc5c4c3C2=O)NC(=O)/C(C)=C\C=C\C(C)C(O)C(C)C(O)C(C)C(OC(C)=O)C1C (stereo unspecified) | f |
| CC(NNC(=S)N1CC2CCC(CC2)C1)c1nccc2ccccc12 (stereo unspecified) | t |
| CCN(CC)C(=O)CCCCC(=O)OC(C)C | f |
| NC1CCCCC1N.O=S(=O)([O-])CCCN1CCOCC1.O=S(=O)([O-])CCCN1CCOCC1.[Pt+4] | f |
| CC1(C)NC(=O)C(C)(C)NC1=O | f |
| Cc1ccc(C2(O)CCN(Cc3ccccc3)CC2)cc1 | t |
| CS(=O)(=O)OCCN(CCOS(C)(=O)=O)c1ccc(C=Nc2ccc3ccccc3c2)cc1 | f |

Request: Could you check what this test reported for `C[n+]1c(-c2ccc(/C=N\NC(=O)c3cccc(C(=O)N/N=C/c4ccc(-c5cn6ccccc6[n+]5C)cc4)c3)cc2)cn2ccccc21` ?
Result: f

###

- procedure.details: NCI Yeast Anticancer Drug Screen. Data for the cln2 rad14 strain (AID 165);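 note: 0% = growth equal to vehicle treated cultures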
- test.conditions: S. cerevisiae cln2 rad14 strain, at 5.0 µM (retest, dose inferred, filed as 0.5), hits give high values
About 79,000 compounds went through this panel and 15% of them were active in at least one assay; those are over-represented in the sample as a whole.
test.readout: growth inhibition (%)
Report only the number, with the unit % understood.

| compound | growth inhibition, % |
| --- | --- |
| C1=NN(c2ccccc2)C2c3ccccc3CCCC12 (stereo unspecified) | -4 |
| COc1c(O)cc2c(c1O)C(=O)C1=C(CCCC1)C2=O | -5 |
| c1ccc(-c2cc(Nc3ccc4c(c3)OCO4)c3cc(C4CCCCC4)ccc3n2)cc1 | -8 |
| Cc1cccnc1NC(=S)Nc1ccccc1Cl | -12 |
| O=C1CN(CCN2CCOCC2)CC(=O)N2Cc3ccccc3CN12 | 3 |
| O=C(O)CN(CCN1CC(=O)OC(=O)C1)CCN1CC(=O)OC(=O)C1 | -8 |
| COc1ccc(CCNC(=S)/N=C\C(C(=O)c2ccccc2)=C(\O)c2ccccc2)cc1OC | -25 |
| C/C=C\C(/C=C/C)(C(=O)OCCN(C)C)C(/C=C\C)(/C=C/C)C(=O)OCCN(C)C (stereo unspecified) | 2 |

Field growth inhibition (entry `CCCCC#CCOC(=O)c1cc([N+](=O)[O-])cc([N+](=O)[O-])c1` ) reads 67

Field growth inhibition (entry CC(=O)C1(O)C(Br)CC2C3CC=C4CC(O)CCC4(C)C3CCC21C (stereo unspecified) ) reads 37

Field growth inhibition (entry `COc1ccc2nccc(C(=O)CBr)c2c1` ) reads -1

###

- procedure.details: NCI Yeast Anticancer Drug Screen. Data for the cln2 rad14 strain (AID 165);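 note: 0% = growth equal to vehicle treated cultures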
- test.conditions: S. cerevisiae cln2 rad14 strain, at 50.0 µM (retest, dose inferred, filed as 5.0), hits give high values
About 79,000 compounds went through this panel and 15% of them were active in at least one assay; those are over-represented in the sample as a whole.
Class (by growth inhibition) -- b0 (below 10%), b1 (10% to below 90%), b2 (90% or more)

| compound | group |
| --- | --- |
| Nc1ccc(C(=O)N/N=C\c2cccc3ccccc23)cc1 | b0 |
| COC(=O)CCCC(=O)NC1=C(Nc2ccccc2)C(=O)c2ccccc2C1=O | b1 |
| CCOP(=O)(OCC)/C(C#N)=C/c1ccc(Oc2ccccc2)cc1 | b2 |

Request: Sort into band: O=C(NC(Cc1ccccc1)C(=O)O)c1ccncc1 (stereo not given)
Result: b0

###

- procedure.details: NCI Yeast Anticancer Drug Screen. Data for the sgs1 mgt1 strain (AID 161);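 note: 0% = growth of cultures given vehicle only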
- test.conditions: S. cerevisiae sgs1 mgt1 strain, at 5.0 µM (retest, dose inferred, filed as 0.5), hits give high values
- Experimental: Growth inhibition of yeast strains with defined genetic alterations is measured as a screen for potential anti-cancer activity. Selected strains with alterations in DNA damage repair or cell cycle control were exposed to compounds and growth inhibition was measured relative to vehicle treated controls. The strain used in this assay is sgs1 mgt1
This is part of a sample that, as a whole, favours compounds with a hit. Of some 79,000 tested, about 15% had one in any assay.
test.readout: growth inhibition (%)
Report only the number, with the unit % understood.

Study these solved cases before continuing.
| molecule | growth inhibition [%] |
| --- | --- |
| COc1cc(OC)c(C(=O)[O][Sn]([c]2ccccc2)([c]2ccccc2)[c]2ccccc2)cc1OC | 99 |
| O=C1C=C(c2ccccc2)OC1(Nc1ccccc1)c1ccccc1 (stereo unspecified) | 2 |
| CCOC(=O)c1cc(Cl)nc2ccc(OC)cc12 | -4 |
| Cc1ccc([N+](=O)[O-])c2c(NCCCN(C)C)c3ccccc3nc12 | 93 |
| Cc1cc(SCC(=O)c2ccccc2)cc(C)[o+]1 | -7 |

Then there is this molecule:
Field growth inhibition (entry `S=C(N/N=C(/c1ccccc1)c1ccccn1)Nc1ccccc1` ) reads 20

###

- procedure.details: NCI Yeast Anticancer Drug Screen. Data for the cln2 rad14 strain (AID 165);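 note: 0% = growth equal to vehicle treated cultures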
- test.conditions: S. cerevisiae cln2 rad14 strain, at 50.0 µM (retest, dose inferred, filed as 5.0), hits give high values
- Procedure: Growth inhibition of yeast strains with defined genetic alterations is measured as a screen for potential anti-cancer activity. Selected strains with alterations in DNA damage repair or cell cycle control were exposed to compounds and growth inhibition was measured relative to vehicle treated controls. The strain used in this assay is cln2 rad14
The panel holds about 79,000 compounds, 15% with a hit somewhere; the sample as a whole holds those more often.
test.readout: growth inhibition (%)
Report only the number, with the unit % understood.

Study these solved cases before continuing.
| molecule | unit.symbol | growth inhibition |
| --- | --- | --- |
| CCOC(=O)c1csc(=S)[nH]1 | % | 46 |
| CC1(C)CC(=O)C2=C(C1)OC1=C(C(=O)CC(C)(C)C1)C2CC(c1ccccc1)c1ccc(O)c(O)c1O (configuration not stated) | % | 18 |
| CCOc1ccc(N=Nc2c(C)nn(C(=S)SC)c2OCC)cc1 | % | 27 |
| Cc1[nH]n(C(N)=S)c(=O)c1N=Nc1ccc([N+](=O)[O-])cc1 | % | 33 |
| OC(Cc1ccccc1)(Cc1ccccc1)c1ccccc1 | % | 98 |
| CCCCCCCCCCCCCCCCNCCCN(C)CCCN | % | 97 |

Field growth inhibition (entry `CCCCCCCCCCCCNCC#N` ) reads 15

###

- procedure.details: NCI Yeast Anticancer Drug Screen. Data for the bub3 strain (AID 167)
- test.conditions: S. cerevisiae bub3 mutant strain, at 50.0 µM, hits give high values
- Experimental: Growth inhibition of yeast strains with defined genetic alterations is measured as a screen for potential anti-cancer activity. Selected strains with alterations in DNA damage repair or cell cycle control were exposed to compounds and growth inhibition was measured relative to vehicle treated controls. The strain used in this assay is bub3
The panel holds about 79,000 compounds, 15% with a hit somewhere; the sample as a whole holds those more often. Calls of active or inactive are those of the source. No stated cut-off is given here; in the data, active means growth inhibition above about 70%; inactive means the rest.
test.readout: growth inhibition

Study these solved cases before continuing.
| compound | test.readout | reported |
| --- | --- | --- |
| COC(=O)C1(OC(=O)CCC(=O)O)C(=O)NC2=C1C(=O)c1ccccc1C2=O (centres undefined) | growth inhibition | 32.9% (inactive) |
| CC1CCC2(CC1)OCC(C)O2 (centres undefined) | growth inhibition | -0.9% (inactive) |
| Cc1c(CCCl)c(N=[N+]=[N-])n2c(nc3ccccc32)c1C#N | growth inhibition | 78.2% (active) |

Field growth inhibition (entry `CC1=C(C(=O)Nc2cc(C)ccc2C)C(c2cccc([N+](=O)[O-])c2)C(C(=O)Nc2cc(C)ccc2C)=C(C)N1` ) reads 29.6% (inactive)

Field growth inhibition (entry `C=C1CC/C=C(/C(=O)O)CC[C@H]2[C@@H]1CC2(C)C` ) reads 69.5% (inactive)

Field growth inhibition (entry `O=S(=O)(O)c1ccc(N=Nc2ccc3c(S(=O)(=O)O)cccc3c2O)c2ccccc12` ) reads -16.1% (inactive)

Provenance of the data: PubChem BioAssay (NCI)
